pIC50: −log10 of the molar value.
Consider the following pIC50 values measured on EGFR (human).
assay readout: pIC50

Worked set:
                        structure_as_smiles  recorded_number
0  Cc1c(CCC(=O)O)c[nH]c1/C=C1/C(=O)Nc2ccc(Cl)cc21             4.92
1  Cc1c(CCC(=O)O)c[nH]c1/C=C1/C(=O)Nc2cc(-c3ccccc3)ccc21             4.52
2  CCOc1cccc(-c2ccc3c(c2)NC(=O)/C3=C\c2[nH]cc(CCC(=O)O)c2C)c1             4.43

(a) Cc1[nH]c(/C=C2/C(=O)Nc3ccc(Cl)cc32)c(C)c1CCCN(C)C
(b) COc1cccc(-c2ccc3c(c2)NC(=O)/C3=C\c2[nH]cc(CCC(=O)O)c2C)c1
Input: In the pair a and b , the larger recorded pIC50 belongs to which? Label of pick, please.
Output: a
